Reference for the values: PubChem BioAssay (NCI)

# Test description: NCI Yeast Anticancer Drug Screen. Data for the mlh1 rad18 strain (AID 175)
# Test conditions: S. cerevisiae mlh1 rad18 strain growth inhibition; at 50.0 µM; stronger effect = higher value
The panel holds about 79,000 compounds, 15% with a hit somewhere; the sample as a whole holds those more often.
Entries and their measured growth inhibition follow.
Attribute measured: growth inhibition (%)

>  <Compound>
COC(=O)c1ccc(C)[n+](C2OC(COC(=O)c3ccccc3)C(OC(=O)c3ccccc3)C2OC(=O)c2ccccc2)c1 (stereo unspecified)

>  <Attribute measured>
growth inhibition

>  <Test value>
29.1

$$$$
>  <Compound>
CCOC(=O)c1ccc(CCCN)cc1

>  <Attribute measured>
growth inhibition

>  <Test value>
0.65

$$$$
>  <Compound>
CCCC(=O)NC(Nc1cc(C)ccn1)(C(=O)OCC)C(F)(F)F (stereo unspecified)

>  <Attribute measured>
growth inhibition

>  <Test value>
-31.9

$$$$
>  <Compound>
CCCNc1ccc2c(c1)C(O)c1ccccc1-2 (stereo unspecified)

>  <Attribute measured>
growth inhibition

>  <Test value>
-2.95

$$$$
>  <Compound>
BrCCC1(CCBr)CCCCC1

>  <Attribute measured>
growth inhibition

>  <Test value>
57.8

$$$$
>  <Compound>
O=C1O[C@H]2C3C4CCC(C4[C@@H]2I)[C@H]13 (stereo partly specified)

>  <Attribute measured>
growth inhibition

>  <Test value>
16.6

$$$$
>  <Compound>
ClCc1ccc(CCc2ccc(CCl)cc2)cc1

>  <Attribute measured>
growth inhibition

>  <Test value>
8.15

$$$$
>  <Compound>
S=C1Cc2c([nH]c3ccccc23)-c2ccccc2N1

>  <Attribute measured>
growth inhibition

>  <Test value>
2.45

$$$$
>  <Compound>
Cc1ccccc1N=Cc1ccc(N(CCC#N)S(=O)(=O)c2ccccc2)cc1

>  <Attribute measured>
growth inhibition

>  <Test value>
15

$$$$
>  <Compound>
CC(C)(C)C(=O)[CH-]C(=O)C(F)(F)F.CC(C)(C)C(=O)[CH-]C(=O)C(F)(F)F.CC(C)(C)C(=O)[CH-]C(=O)C(F)(F)F.[Ru+3]

>  <Attribute measured>
growth inhibition

>  <Test value>
24.4

$$$$
>  <Compound>
COc1cc(-c2oc3ccccc3c(=O)c2O)cc(OC)c1OC

>  <Attribute measured>
growth inhibition

>  <Test value>
-14.1

$$$$
